biological target: GRID2IP_2, A4D2P6; assay: holdup assay; design: key: below the threshold = too weak to quantify, mostly under pKd 3.1 to 4; conditions: plain residues with an end cap or a label only (N-terminal biotin on a linker: ado-ado)
Sequence (A4D2P6 272-370): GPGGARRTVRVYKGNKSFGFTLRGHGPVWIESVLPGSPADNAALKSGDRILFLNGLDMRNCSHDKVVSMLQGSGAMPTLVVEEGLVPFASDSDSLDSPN
MEASURED_PROPERTY: pKd

Examples with answers:
binder="NVYGIESVKI [GRIA2, P42262]" reported_measurement="below the threshold"
binder="LAHVKHKEQI [AQP3, Q92482]" reported_measurement="below the threshold"
binder="SVTSERETNI [SLC16A7, O60669]" reported_measurement="below the threshold"
binder="DPAESMESLV [PTPRG, P23470]" reported_measurement="below the threshold"

Exam item: State the recorded pKd for this entry: GEDRSPPTAL [MKNK1, Q9BUB5]
Marked response: below the threshold

Exam item: Please do the same for IDESKKEWLI [CNTNAP2, Q9UHC6] as well.
Marked response: below the threshold

Exam item: EDLEDEWEVI [TECPR2, O15040] ?
Marked response: below the threshold
